FYI, the data here is from paper PMC8364686.

- experimentDescription: Plasma pharmacokinetics of BI 187004 after single oral doses (LC–MS/MS)
- particulars: male, human, plasma, po, 20 mg, BI 187004 plasma concentrations, 20 mg single oral, planned time 96 h, Mean
measure: concentration at 96 h (nM)

In [3]: df
Out[3]:
                             smilesnotation                measure  unitlabel  quantitativeresult
0  N#Cc1ccc2c(c1)[C@H]1CCCN(C(=O)c3ccc4[nH]cnc4c3)[C@H]1C2  concentration at 96 h         nM                10.4

----------
- experimentDescription: Plasma pharmacokinetics of BI 187004 after single oral doses (LC–MS/MS)
- particulars: male, human, plasma, oral, 160 mg, Plasma C24 gMean (range), 160 mg single dose; 24 h
measure: concentration at 24 h (nM)

In [3]: df
Out[3]:
                                   compound  unitlabel  quantitativeresult
0  N#Cc1ccc2c(c1)[C@H]1CCCN(C(=O)c3ccc4[nH]cnc4c3)[C@H]1C2 [BI 187004]         nM                1630

----------
- experimentDescription: Plasma pharmacokinetics of BI 187004 after single oral doses (LC–MS/MS)
- particulars: male, human, plasma, po, 360 mg, BI 187004 plasma concentrations, Max, 360 mg single oral, planned time 10 h
measure: concentration at 10 h (µM)

>>> df
                             smilesnotation                measure  quantitativeresult
0  N#Cc1ccc2c(c1)[C@H]1CCCN(C(=O)c3ccc4[nH]cnc4c3)[C@H]1C2  concentration at 10 h                7.68

----------
- experimentDescription: Plasma pharmacokinetics of BI 187004 after single oral doses (LC–MS/MS)
- particulars: male, human, plasma, po, 80 mg, BI 187004 plasma concentrations, 80 mg single oral, planned time 48 h, Mean
measure: concentration at 48 h (nM)

>>> df
                                   molecule                measure  quantitativeresult
0  N#Cc1ccc2c(c1)[C@H]1CCCN(C(=O)c3ccc4[nH]cnc4c3)[C@H]1C2 [BI 187004]  concentration at 48 h                 281

----------
- experimentDescription: Plasma pharmacokinetics of BI 187004 after single oral doses (LC–MS/MS)
- particulars: male, human, plasma, po, 10 mg, Plasma concentration, individual subjects, 10 mg single oral; planned time 2.5 h
measure: concentration at 2.5 h (nM)

In [3]: df
Out[3]:
                                   compound  quantitativeresult
0  N#Cc1ccc2c(c1)[C@H]1CCCN(C(=O)c3ccc4[nH]cnc4c3)[C@H]1C2 [BI 187004]                 442

----------
- experimentDescription: Plasma pharmacokinetics of BI 187004 after single oral doses (LC–MS/MS)
- particulars: male, human, plasma, po, 160 mg, BI 187004 plasma concentrations, 160 mg single oral, planned time 3 h, Min
measure: concentration at 3 h (µM)

>>> print(df.to_string())
                             smilesnotation  unitlabel  quantitativeresult
0  N#Cc1ccc2c(c1)[C@H]1CCCN(C(=O)c3ccc4[nH]cnc4c3)[C@H]1C2         µM                5.33

----------
- experimentDescription: Plasma pharmacokinetics of BI 187004 after single oral doses (LC–MS/MS)
- particulars: male, human, plasma, po, 80 mg
measure: Vd/F (L)

                                   compound  measure  quantitativeresult
0  N#Cc1ccc2c(c1)[C@H]1CCCN(C(=O)c3ccc4[nH]cnc4c3)[C@H]1C2 [BI 187004]     Vd/F                 113

----------
- experimentDescription: Plasma pharmacokinetics of BI 187004 after single oral doses (LC–MS/MS)
- particulars: male, human, plasma, po, 80 mg, BI 187004 plasma concentrations, 80 mg single oral, planned time 24 h, Max
measure: concentration at 24 h (nM)

In [3]: df
Out[3]:
                                   molecule  quantitativeresult
0  N#Cc1ccc2c(c1)[C@H]1CCCN(C(=O)c3ccc4[nH]cnc4c3)[C@H]1C2 [BI 187004]                1560

----------
- experimentDescription: Plasma pharmacokinetics of BI 187004 after single oral doses (LC–MS/MS)
- particulars: male, human, plasma, po, 5 mg, Plasma concentration Median, 5 mg single oral; 2.5 h
measure: concentration at 2.5 h (nM)

>>> print(df.to_string())
                             smilesnotation                 measure  unitlabel  quantitativeresult
0  N#Cc1ccc2c(c1)[C@H]1CCCN(C(=O)c3ccc4[nH]cnc4c3)[C@H]1C2  concentration at 2.5 h         nM                 121

----------
- experimentDescription: Plasma pharmacokinetics of BI 187004 after single oral doses (LC–MS/MS)
- particulars: male, human, plasma, po, 160 mg, BI 187004 plasma concentrations, 160 mg single oral, planned time 8 h, Median
measure: concentration at 8 h (µM)

                             smilesnotation               measure  quantitativeresult
0  N#Cc1ccc2c(c1)[C@H]1CCCN(C(=O)c3ccc4[nH]cnc4c3)[C@H]1C2  concentration at 8 h                3.74

----------
- experimentDescription: Plasma pharmacokinetics of BI 187004 after single oral doses (LC–MS/MS)
- particulars: male, human, plasma, po, 80 mg, BI 187004 plasma concentrations, 80 mg single oral, planned time 96 h, Min
measure: concentration at 96 h (nM)

>>> df
                                   compound  quantitativeresult
0  N#Cc1ccc2c(c1)[C@H]1CCCN(C(=O)c3ccc4[nH]cnc4c3)[C@H]1C2 [BI 187004]                11.9

----------
- experimentDescription: Plasma pharmacokinetics of BI 187004 after single oral doses (LC–MS/MS)
- particulars: male, human, plasma, po, 240 mg, BI 187004 plasma concentrations, Min, 240 mg single oral, planned time 12 h
measure: concentration at 12 h (nM)

In [3]: df
Out[3]:
                             smilesnotation  quantitativeresult
0  N#Cc1ccc2c(c1)[C@H]1CCCN(C(=O)c3ccc4[nH]cnc4c3)[C@H]1C2                 258

----------
- experimentDescription: Plasma pharmacokinetics of BI 187004 after single oral doses (LC–MS/MS)
- particulars: male, human, plasma, po, 20 mg, BI 187004 plasma concentrations, 20 mg single oral, planned time 72 h, Max
measure: concentration at 72 h (nM)

In [3]: df
Out[3]:
                             smilesnotation                measure  unitlabel  quantitativeresult
0  N#Cc1ccc2c(c1)[C@H]1CCCN(C(=O)c3ccc4[nH]cnc4c3)[C@H]1C2  concentration at 72 h         nM                43.9

----------
- experimentDescription: Plasma pharmacokinetics of BI 187004 after single oral doses (LC–MS/MS)
- particulars: male, human, plasma, po, 160 mg, BI 187004 plasma concentrations, 160 mg single oral, planned time 2 h, Mean
measure: concentration at 2 h (µM)

>>> df
                             smilesnotation  quantitativeresult
0  N#Cc1ccc2c(c1)[C@H]1CCCN(C(=O)c3ccc4[nH]cnc4c3)[C@H]1C2                7.07

----------
- experimentDescription: Plasma pharmacokinetics of BI 187004 after single oral doses (LC–MS/MS)
- particulars: male, human, plasma, po, 160 mg, BI 187004 plasma concentrations, 160 mg single oral, planned time 0.5 h, Median
measure: concentration at 0.5 h

>>> print(df.to_string())
                             smilesnotation   result
0  N#Cc1ccc2c(c1)[C@H]1CCCN(C(=O)c3ccc4[nH]cnc4c3)[C@H]1C2  6.83 µM

----------
- experimentDescription: Plasma pharmacokinetics of BI 187004 after single oral doses (LC–MS/MS)
- particulars: male, human, plasma, po, 2.5 mg, Plasma concentration gMean, 2.5 mg single oral; 6 h
measure: concentration at 6 h (nM)

In [3]: df
Out[3]:
                                   molecule  quantitativeresult
0  N#Cc1ccc2c(c1)[C@H]1CCCN(C(=O)c3ccc4[nH]cnc4c3)[C@H]1C2 [BI 187004]                5.38
